I'd appreciate it if you could supply SPOT intensity values for the items below.
Target: T1, Bzz1-1, P38822
T1 sequence (P38822 478-572, looked up): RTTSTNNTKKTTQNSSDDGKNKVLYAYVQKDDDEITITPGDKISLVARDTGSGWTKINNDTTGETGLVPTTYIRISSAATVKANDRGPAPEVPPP
Experiment: SPOT array
Conditions: median of control spots 4446
Numbers only.

Below are some binders; for each one, tell me its SPOT intensity.
1. KRKRRLPVSEDTNTK
2. GSKSGPPPRPKKPST
3. PSTMDFPKLPSFQNS
4. VKPRQLFPIPLNKVD
5. YYNRQELALPKRMSS
6. IKTRSVPKIPSIESV
7. HPRFVSPRIPSRIVK

[3, 3, 0, 1, 0, 2, 0]

This collection of values is drawn from paper PMC2756588.
